- measurement-target: EGFR (Homo sapiens, UniProt P00533)
- Sequence (P00533 25-1210): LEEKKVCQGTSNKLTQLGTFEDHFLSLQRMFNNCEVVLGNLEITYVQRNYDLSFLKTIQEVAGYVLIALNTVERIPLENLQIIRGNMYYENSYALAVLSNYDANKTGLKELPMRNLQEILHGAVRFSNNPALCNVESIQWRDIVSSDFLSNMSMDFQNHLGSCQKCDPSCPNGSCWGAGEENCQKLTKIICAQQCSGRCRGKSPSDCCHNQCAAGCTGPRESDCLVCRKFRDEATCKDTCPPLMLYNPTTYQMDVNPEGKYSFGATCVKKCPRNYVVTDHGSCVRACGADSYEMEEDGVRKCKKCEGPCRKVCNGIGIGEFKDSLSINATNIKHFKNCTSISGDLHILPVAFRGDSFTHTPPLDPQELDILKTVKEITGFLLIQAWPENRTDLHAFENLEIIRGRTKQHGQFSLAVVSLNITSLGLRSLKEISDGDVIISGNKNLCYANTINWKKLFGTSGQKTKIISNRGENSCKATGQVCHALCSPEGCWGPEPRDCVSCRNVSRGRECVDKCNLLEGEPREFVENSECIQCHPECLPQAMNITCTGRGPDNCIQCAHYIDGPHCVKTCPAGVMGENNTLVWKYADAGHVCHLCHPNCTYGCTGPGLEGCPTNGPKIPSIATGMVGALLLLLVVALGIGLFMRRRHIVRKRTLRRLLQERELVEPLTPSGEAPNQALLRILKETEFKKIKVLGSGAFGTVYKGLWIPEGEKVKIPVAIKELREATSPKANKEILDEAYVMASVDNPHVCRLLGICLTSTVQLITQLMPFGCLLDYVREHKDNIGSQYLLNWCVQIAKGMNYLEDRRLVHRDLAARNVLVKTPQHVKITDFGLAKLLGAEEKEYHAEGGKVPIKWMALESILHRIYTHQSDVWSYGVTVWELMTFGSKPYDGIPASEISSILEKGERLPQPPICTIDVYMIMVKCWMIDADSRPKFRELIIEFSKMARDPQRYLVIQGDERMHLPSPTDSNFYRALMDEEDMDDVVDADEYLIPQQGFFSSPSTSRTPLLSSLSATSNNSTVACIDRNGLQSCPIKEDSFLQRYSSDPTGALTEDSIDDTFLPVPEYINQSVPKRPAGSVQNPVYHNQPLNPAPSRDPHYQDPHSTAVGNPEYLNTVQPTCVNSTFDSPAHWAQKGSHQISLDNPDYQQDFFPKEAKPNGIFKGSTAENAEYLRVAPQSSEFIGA
- assay-protocol: Inhibition of a panel of kinases, in vitro HotSpot kinase assay: EGFR
- Format: biochemical
- study-conditions: D-compounds panel data; 1 μM ATP
pIC50: −log10 of the molar value.
In this section, each of the compounds is paired with its reported pIC50.

Record excerpt, results attached:
| smiles-text | pIC50 |
| --- | --- |
| C[C@@H]1[C@H](NC(=O)N(C)C)CCCN1c1cnc(C(N)=O)c(Nc2cnn(C)c2)n1 | 5.00 to 6.00 |
| C[C@@H]1[C@H](NC(=O)c2ccc(C3CC3)cc2)CCCN1c1cnc(C(N)=O)c(Nc2cnn(C3CCN(C)CC3)c2)n1 | 6.00 to 7.00 |
| C[C@@H]1[C@H](NC(=O)c2ccc(C3CC3)cn2)CCCN1c1cnc(C(N)=O)c(Nc2cnn(C)c2)n1 | 5.00 to 6.00 |
| Cn1cc(Nc2nc(N3CCC(F)(F)[C@@H](NC(=O)c4ccc(C5CC5)cc4)C3)cnc2C(N)=O)cn1 | < 5.00 |
| C[C@@H]1CC[C@@H](NC(=O)c2ccc(C3CC3)cc2)CN1c1cnc(C(N)=O)c(Nc2cnn(C)c2)n1 | 5.00 to 6.00 |
| C[C@@H]1[C@H](NC(=O)c2ccc(C3CC3)cc2F)CCCN1c1cnc(C(N)=O)c(Nc2cc(CN(C)C)ns2)n1 | 5.00 to 6.00 |

Then this compound:
Query: Could you share what pIC50 was measured for C[C@@H]1[C@H](NC(=O)c2ccc(C3CC3)cc2)CCCN1c1cnc(C(N)=O)c(Nc2ccc(CN3CCOCC3)cc2)n1 , tested on EGFR (Homo sapiens, UniProt P00533)?
Reply: 6.00 to 7.00
